System: Vero E6 infected with SARS-CoV-2
assay_explanation: morphology score (similarity to uninfected cells); higher = more like uninfected cells
run_conditions: 24 h
Label scheme for morphology score: lower than -0.03 is not fulfilled, -0.03 and above is fulfilled.

[[record]]
compound = "CC(C)(C)c1ccc(-c2nc3c(N4CCN(Cc5ccc6nccnc6c5)CC4)cccc3[nH]2)cc1 (0.833333 µM)"
class_name = "fulfilled"

[[record]]
compound = "CC[C@]1(O)C[C@@H]2CN(CCc3c([nH]c4ccccc34)[C@@](C(=O)OC)(c3cc4c(cc3OC)N(C)[C@H]3[C@@](O)(C(N)=O)[C@H](O)[C@]5(CC)C=CCN6CC[C@]43[C@@H]65)C2)C1 [vindesine] (10 µM)"
class_name = "not fulfilled"

[[record]]
compound = "NC(=O)N/N=C/c1ccc([N+](=O)[O-])o1 [nitrofurazone] (10 µM)"
class_name = "fulfilled"

[[record]]
compound = "CCCCCCCCN=c1ccn(CCCCCCCCCCn2ccc(=NCCCCCCCC)cc2)cc1 [octenidine] (0.833333 µM)"
class_name = "fulfilled"

[[record]]
compound = "CS(=O)(=O)c1ccc(Oc2cc(F)cc(C#N)c2)c2c1[C@H](O)C(F)(F)C2 (10 µM)"
class_name = "fulfilled"

[[record]]
compound = "C#C[C@]1(O)CC[C@H]2[C@@H]3CCc4cc(OC5CCCC5)ccc4[C@H]3CC[C@@]21C [quinestrol] (10 µM)"
class_name = "not fulfilled"

[[record]]
compound = "CSc1ccc([C@H]2CN3CCC[C@H]3c3ccccc32)cc1 (racemic) (10 µM)"
class_name = "fulfilled"

[[record]]
compound = "N[C@H]1C[C@@H]1c1ccc(-c2cccc(O)c2)cc1 (10 µM)"
class_name = "fulfilled"

[[record]]
compound = "CN(C)C(=O)c1cc2cnc(Nc3ccc(N4CCNCC4)cn3)nc2n1C1CCCC1 [ribociclib] (10 µM)"
class_name = "fulfilled"

[[record]]
compound = "COc1ccc2cc(-c3nc(-c4ccc([S+](C)[O-])cc4)[nH]c3-c3ccncc3)ccc2c1 (stereo unspecified) [tie2-kinase-inhibitor] (10 µM)"
class_name = "fulfilled"

[[record]]
compound = "NS(=O)(=O)OC[C@@H]1C[C@@H](n2ccc3c(N[C@H]4CCc5ccccc54)ncnc32)C[C@@H]1O [pevonedistat] (0.833333 µM)"
class_name = "not fulfilled"

[[record]]
compound = "CCC[C@@H]1C[C@@H](C(=O)N[C@@H]([C@H]2O[C@H](SC)[C@H](O)[C@@H](O)[C@H]2O)[C@H](C)Cl)N(C)C1 (10 µM)"
class_name = "not fulfilled"

[[record]]
compound = "O=S1(=O)CCN(CN2CCS(=O)(=O)NC2)CN1 [taurolidine] (10 µM)"
class_name = "not fulfilled"

[[record]]
compound = "C=CC(=O)Nc1cccc(Oc2nc(Nc3ccc(N4CCN(C)CC4)cc3OC)ncc2Cl)c1 (0.833333 µM)"
class_name = "not fulfilled"

[[record]]
compound = "O=C1c2cc(Cl)ccc2OC2CCON12 (stereo unspecified) [seclazone] (10 µM)"
class_name = "fulfilled"

[[record]]
compound = "Cc1cc(NC(=O)Nc2ccc(N(C)C)cc2)c2cc(F)cc(F)c2n1 (10 µM)"
class_name = "fulfilled"


###

System: Vero E6 infected with SARS-CoV-2
assay_explanation: inhibition of SARS-CoV-2 cytopathic effect; higher = more antiviral protection, active = above 15
run_conditions: 1 nM; 48 h
recorded_endpoint: inhibition of SARS-CoV-2 cytopathic effect (%)

[[record]]
compound = "Nc1nccc2c1ncn2[C@@H]1O[C@H](CO)[C@@H](O)[C@@H]1O [3-deazaadenosine]"
measured_result = -0.84

[[record]]
compound = "C[C@@H]1O[C@@H](O[C@H]2[C@H](Oc3cc(O)c(C(=O)CCc4ccc(O)cc4)c(O)c3)O[C@H](CO)[C@@H](O)[C@@H]2O)[C@H](O)[C@H](O)[C@H]1O [naringin-dihydrochalcone]"
measured_result = 0.83

[[record]]
compound = "OC(CNCC(O)C1CCc2cc(F)ccc2O1)C1CCc2cc(F)ccc2O1 (stereo not drawn) [nebivolol]"
measured_result = -8.56

[[record]]
compound = "O=C(COc1ccc(Cl)cc1)N1CCN(Cc2ccc3c(c2)OCO3)CC1 [fipexide]"
measured_result = -0.21

[[record]]
compound = "CCCCCCCCCCCCCCCCCC(=O)OC[C@@H](O)[C@H]1OC[C@H](O)[C@H]1O [sorbitan-monostearate]"
measured_result = 0.02

[[record]]
compound = "Cc1cc(-n2c(=O)[nH]c(=O)n(C)c2=O)ccc1Oc1ccc(SC(F)(F)F)cc1 [toltrazuril]"
measured_result = 1.91

[[record]]
compound = "CC(C)(S)C(=O)N[C@@H](CS)C(=O)O [bucillamine]"
measured_result = 0.66

[[record]]
compound = "Oc1c(I)cc(I)c(O)c1I [riodoxol]"
measured_result = 0


###

System: Vero E6 infected with SARS-CoV-2
assay_explanation: inhibition of SARS-CoV-2 cytopathic effect; higher = more antiviral protection, active = above 15
run_conditions: 833.33 nM; 48 h
recorded_endpoint: inhibition of SARS-CoV-2 cytopathic effect (%)

[[record]]
molecule = "Cc1nc(C)c(Cl)c(O)c1Cl"
value_units = "%"
measured_result = 0.96

[[record]]
molecule = "CNC(=S)C1(c2ccccn2)CCCS1 (stereo not given) [picartamide]"
value_units = "%"
measured_result = 2.39

[[record]]
molecule = "Clc1ccc2c(N3CCN(CCCN4CCN(c5ccnc6cc(Cl)ccc56)CC4)CC3)ccnc2c1 [piperaquine-phosphate]"
value_units = "%"
measured_result = -1.37

[[record]]
molecule = "CCCCCCOc1nsnc1C1=CCCN(C)C1"
value_units = "%"
measured_result = -1.94

[[record]]
molecule = "CC1CCC(NC(=O)N(CCCl)N=O)CC1 (stereo not given)"
value_units = "%"
measured_result = -1.54


###

Tested on: Vero E6 infected with SARS-CoV-2
assay_explanation: inhibition of SARS-CoV-2 cytopathic effect; higher = more antiviral protection, active = above 15
run_conditions: 833.33 nM; 48 h
Listing: inhibition of SARS-CoV-2 cytopathic effect of selected compounds
recorded_endpoint: inhibition of SARS-CoV-2 cytopathic effect (%)

[[record]]
compound = "O=C(NCNC(=O)NC1C(=O)NC(=O)N1CO)NC1C(=O)NC(=O)N1CO (centres undefined) [imidurea]"
study_target = "Vero E6 infected with SARS-CoV-2"
measured_result = -1.38

[[record]]
compound = "CC[N+](C)(CC)CCOC(=O)C1c2ccccc2Oc2ccccc21 [methantheline]"
study_target = "Vero E6 infected with SARS-CoV-2"
measured_result = -0.21

[[record]]
compound = "O=C(O)C1=CCNCC1 [isoguvacine]"
study_target = "Vero E6 infected with SARS-CoV-2"
measured_result = 3.23

[[record]]
compound = "O=C(O[C@@H]1Cc2c(O)cc(O)cc2O[C@@H]1c1cc(O)c(O)c(O)c1)c1cc(O)c(O)c(O)c1 [epigallocatechin-gallate-(-)]"
study_target = "Vero E6 infected with SARS-CoV-2"
measured_result = 1.05

[[record]]
compound = "COC(=O)CCC(=O)CN [methyl-aminolevulinate]"
study_target = "Vero E6 infected with SARS-CoV-2"
measured_result = 3.55

[[record]]
compound = "Cc1ccc(C(=O)Nc2cccc(C(F)(F)F)c2)cc1Nc1nc(-c2cccnc2)nc2c1cnn2C"
study_target = "Vero E6 infected with SARS-CoV-2"
measured_result = 8.31

[[record]]
compound = "O=c1ncn2nc(Sc3ccc(F)cc3F)ccc2c1-c1c(Cl)cccc1Cl"
study_target = "Vero E6 infected with SARS-CoV-2"
measured_result = 1.03

[[record]]
compound = "O=C(Nc1ccc(-c2ccnc(Nc3ccc(N4CCOCC4)cc3)n2)cc1)C1CCCN1 (centres undefined)"
study_target = "Vero E6 infected with SARS-CoV-2"
measured_result = -1.01

[[record]]
compound = "O=c1cc(N2CCNCC2)oc2c(-c3ccccc3)cccc12"
study_target = "Vero E6 infected with SARS-CoV-2"
measured_result = 0.12

